- Tested on: SK-MEL-3 tumor cells
- assay name: Cell growth inhibition assay (CellTiter-Glo), SK-MEL-3
- Assay type: cell-based, Human
- experimental parameters: Homo sapiens, SK-MEL3
pIC50: −log10 of the molar value.
result type: pIC50

# lookup: pIC50 of O=S(=O)(Nc1cc(-c2nc(N3CCOCC3)sc2-c2ccnc(Nc3ccc(N4CCOCC4)nc3)n2)ccc1F)c1c(F)cccc1F
6.00 to 7.00

# lookup: pIC50 of CC(C)c1nc(-c2cccc(NS(=O)(=O)c3ccccc3)c2)c(-c2ccnc(Nc3ccc(N4CCN(CCS(C)(=O)=O)CC4)c(F)c3F)n2)s1
6.00 to 7.00

# lookup: pIC50 of CS(=O)(=O)CCN1CCN(c2ccc(Nc3nccc(-c4oc(N5CCCC5)nc4-c4cccc(NS(=O)(=O)c5c(F)cccc5F)c4F)n3)cc2F)CC1
> 7.00

# lookup: pIC50 of CC(C)c1nc(-c2cccc(NS(=O)(=O)c3c(F)cccc3F)c2F)c(-c2ccnc(Nc3ccc(N4CCN(CCF)CC4)c(F)c3)n2)s1
> 7.00

# lookup: pIC50 of CC(=O)N1CCN(c2ccc(Nc3nccc(-c4oc(C(C)C)nc4-c4cccc(NS(=O)(=O)c5c(F)cccc5F)c4)n3)cn2)CC1
> 7.00

# lookup: pIC50 of CC(C)c1nc(-c2ccnc(NS(=O)(=O)c3c(F)cccc3F)c2)c(-c2ccnc(Nc3cnc(N4CCOCC4)c(F)c3)n2)s1
> 7.00

Attribution: patent US20110319392A1
